biological target: Beta-lactamase OXA-23 (Acinetobacter baumannii); test: Kcat/Km ratio of Acinetobacter baumannii OXA-23 relative to Cephaloridine
This listing pairs compounds with measured Activity.
assay metric: Activity (%)

> print(dat)
                                smiles.repr  assay.metric  uom  assay.result
1  C[C@@H](O)[C@H]1C(=O)N2C(C(=O)O)=C(S[C@@H]3CN[C@H](CNS(N)(=O)=O)C3)[C@H](C)[C@H]12      Activity    %            31
2  CC1(C)S[C@@H]2[C@H](NC(=O)Cc3ccccc3)C(=O)N2[C@H]1C(=O)O      Activity    %         12000
3  C[C@@H](O)[C@H]1C(=O)N2C(C(=O)O)=C(SCCNC=N)C[C@H]12      Activity    %         14200
4  C[C@@H](O)[C@H]1C(=O)N2C(C(=O)O)=C(S[C@@H]3CN[C@H](C(=O)N(C)C)C3)[C@H](C)[C@H]12      Activity    %          14.9
